Biological target: Shiga toxin 2 (Escherichia coli O157:H7) (UniProt P09385+P09386)
Experiment: E. coli 0.157:H7 Shiga Toxin SOP - stx2 screening assay
Assay type: functional
Parameters: scale not given: direction of the effect not stated beside the values
Conditions: 30 µM

{"columns": ["molecule", "Percent Effect / %"],
 "data": [
  ["CCn1cnnc1CNC(=O)c1ccc(Cl)cc1F", -53.7],
  ["CC(O)(CN1CCC2(CC1)OCCO2)c1cccc(C(F)(F)F)c1 (configuration not stated)", -7.35],
  ["CCOCCCNC(=O)c1ccccc1S(C)(=O)=O", 0.226],
  ["CCCn1ncc(CN2C[C@@H]3CCCN3C[C@@H]2CCSC)c1C", -13.3],
  ["CC(C)c1nc(C2CCCN2Cc2ccn(C)c(=O)c2)no1 (configuration not stated)", -44.4],
  ["CC(=O)N(Cc1noc(C2CC2)n1)C1CCN(Cc2ccncc2)C1 (configuration not stated)", -5.75],
  ["CCn1cc(NC(=O)NCc2ccc3c(c2)OCCO3)cn1", -43.3],
  ["O=C(c1cnc(C2CC2)s1)N1CCCCC1Cn1cccn1 (configuration not stated)", -18.5],
  ["Cc1cc(CN2CCC(c3ccnn3CCO)CC2)no1", -16.1],
  ["NC(=O)C1(c2cnccn2)CCCN1Cc1cc2ccccc2o1 (configuration not stated)", 11.4],
  ["Cc1ncncc1C(=O)Nc1cnn(CC(=O)NC2CCCC2)c1", -10.6],
  ["Cc1cc(NCc2cc3n(n2)CCCN(S(C)(=O)=O)C3)ncn1", 25.2]
]}
